Tested on: MDA-MB-468
experiment-description: Antiproliferative activity against human MDA-MB-468 cells assessed as cell growth at 1 uM incubated for 3 days by 3H-thymidine incorporation assay relative to control
Format: functional
assay-setup: read-out: Activity
Response field label takes criterion met when growth at 1 µM is strictly below 80% and criterion not met in all other cases.

Query :: In plain terms, does Nc1c(C(=O)Nc2ccccc2Cl)sc2nc3c(cc12)CCCC3 come in under 80% for growth at 1 µM?
Result :: criterion not met

Query :: In plain terms, does Cc1ccc2cc3c(N)c(C(=O)Nc4ccccc4[N+](=O)[O-])sc3nc2c1 come in under 80% for growth at 1 µM?
Result :: criterion not met

Query :: In plain terms, does Nc1c(C(=O)Nc2ccccc2C(F)(F)F)sc2nc3c(cc12)CCCCC3 come in under 80% for growth at 1 µM?
Result :: criterion not met

Query :: In plain terms, does Cc1cc(C)c(NC(=O)c2sc3nc4c(cc3c2N)CCCCC4)c(C)c1 come in under 80% for growth at 1 µM?
Result :: criterion not met

Query :: In plain terms, does Nc1c(C(=O)Nc2cccc(F)c2)sc2nc3c(cc12)CCCCC3 come in under 80% for growth at 1 µM?
Result :: criterion met

Query :: In plain terms, does Nc1c(C(=O)Nc2cccc3ccccc23)sc2nc3c(cc12)CCC3 come in under 80% for growth at 1 µM?
Result :: criterion met

Query :: In plain terms, does Nc1c(C(=O)Nc2cccc(Br)c2)sc2nc3c(cc12)CCCC3 come in under 80% for growth at 1 µM?
Result :: criterion met

Query :: In plain terms, does COc1ccc(NC(=O)c2sc3nc4c(cc3c2N)CCCC4)cc1 come in under 80% for growth at 1 µM?
Result :: criterion not met

Query :: In plain terms, does Nc1c(C(=O)Nc2ccccc2)sc2nc3c(c(-c4ccco4)c12)CCCCC3 come in under 80% for growth at 1 µM?
Result :: criterion met

Query :: In plain terms, does Nc1c(C(=O)Nc2ccccc2)sc2nc3c(cc12)CCC3 come in under 80% for growth at 1 µM?
Result :: criterion met

----------
Measured growth at 1 µM accompanies every entry in the list below.
System: MDA-MB-468
experiment-description: Antiproliferative activity against human MDA-MB-468 cells assessed as cell growth at 1 uM incubated for 3 days by 3H-thymidine incorporation assay relative to control
Type: functional
assay-setup: read-out: Activity
Give the value, in units of %, as a plain number.

// known answers, use as guide
compound	units-text	value-observed
CCc1ccccc1NC(=O)c1sc2nc3c(cc2c1N)CCCC3	%	63
CCc1cccc(NC(=O)c2sc3nc4c(cc3c2N)CC(CC)CC4)c1 (stereo unspecified)	%	12
COc1cccc(NC(=O)c2sc3nc4c(cc3c2N)CCC4)c1	%	63

Query :: Would you mind telling me what growth at 1 µM value was observed for Nc1c(C(=O)Nc2ccccc2Cl)sc2nc3c(cc12)CCCCC3 ?
Result :: 73

Query :: Would you mind telling me what growth at 1 µM value was observed for Nc1c(C(=O)Nc2ccccc2F)sc2nc3c(cc12)CCCCC3 ?
Result :: 11

Query :: Would you mind telling me what growth at 1 µM value was observed for COc1ccc(NC(=O)c2sc3nc4c(cc3c2N)CCCCCC4)cc1OC ?
Result :: 107

----------
Test system: K562
experiment-description: Antiproliferative activity against human K562 cells assessed as cell growth incubated for 3 days by 3H-thymidine incorporation assay relative to control
Format: functional, cell-based
Measured IC50 accompanies every entry in the list below.
In your response, put the unit directly after the numeric value.

1) Cc1cccc(NC(=O)c2sc3nc4c(cc3c2N)CCCCC4)c1C 167 nM
2) Nc1c(C(=O)Nc2ccccc2F)sc2nc3c(cc12)CCCCCC3 562 nM
3) Nc1c(C(=O)Nc2ccccc2F)sc2nc3c(cc12)CCCCC3 575 nM

Query :: Would you mind telling me what IC50 value was observed for COc1cccc(NC(=O)c2sc3nc4c(cc3c2N)CCCCC4)c1 ?
Result :: 580 nM

Query :: Would you mind telling me what IC50 value was observed for Cc1c(Cl)cccc1NC(=O)c1sc2nc3c(cc2c1N)CCCCC3 ?
Result :: 210 nM

Query :: Would you mind telling me what IC50 value was observed for Cc1c(Br)cccc1NC(=O)c1sc2nc3c(cc2c1N)CCCCC3 ?
Result :: 223 nM

----------
Measured growth at 1 µM accompanies every entry in the list below.
Tested on: MDA-MB-231
experiment-description: Antiproliferative activity against human MDA-MB-231 cells assessed as cell growth at 1 uM incubated for 3 days by 3H-thymidine incorporation assay relative to control
Assay type: functional
assay-setup: read-out: Activity
Give the value, in units of %, as a plain number.

// known answers, use as guide
1. Nc1c(C(=O)Nc2cccc([N+](=O)[O-])c2)sc2nc3c(cc12)CCC3 79
2. Nc1c(C(=O)Nc2cccc(Cl)c2)sc2nc3c(cc12)CCCC3 98
3. Nc1c(C(=O)Nc2cccc3ccccc23)sc2nc3c(cc12)CCCCC3 106

Query :: Would you mind telling me what growth at 1 µM value was observed for CCOc1ccc2nc3sc(C(=O)Nc4ccc(C(C)=O)cc4)c(N)c3cc2c1 ?
Result :: 97

Query :: Would you mind telling me what growth at 1 µM value was observed for CCc1cccc(C)c1NC(=O)c1sc2nc3c(cc2c1N)CCCC3 ?
Result :: 84

Query :: Would you mind telling me what growth at 1 µM value was observed for Nc1c(C(=O)Nc2cccc3ccccc23)sc2nc3c(cc12)CCCC3 ?
Result :: 60

----------
Measured growth at 1 µM accompanies every entry in the list below.
experiment-description: Antiproliferative activity against human HCT116 cells assessed as cell growth at 1 uM incubated for 3 days by 3H-thymidine incorporation assay relative to control
Assay type: functional
assay-setup: HCT-116, read-out: Activity
Give the value, in units of %, as a plain number.

// known answers, use as guide
1. Nc1c(C(=O)Nc2cccc(Br)c2)sc2nc3c(cc12)CCC3 93
2. Nc1c(C(=O)Nc2cccc3ccccc23)sc2nc3c(cc12)CCC3 92

Query :: Would you mind telling me what growth at 1 µM value was observed for Nc1c(C(=O)Nc2cccc(Br)c2)sc2nc3c(cc12)CCCC3 ?
Result :: 85

----------
experiment-description: Antiproliferative activity against human HCT116 cells assessed as cell growth at 1 uM incubated for 3 days by 3H-thymidine incorporation assay relative to control
Type: functional
assay-setup: HCT-116, read-out: Activity
Measured growth at 1 µM accompanies every entry in the list below.

// known answers, use as guide
1) Nc1c(C(=O)Nc2cccc(Cl)c2)sc2nc3c(cc12)CCCCC3 86%
2) Nc1c(C(=O)Nc2ccccc2Cl)sc2nc3c(cc12)CCCC3 94%
3) CCc1cccc(CC)c1NC(=O)c1sc2nc3c(cc2c1N)CCCC3 108%
4) Nc1c(C(=O)Nc2cccc3ccccc23)sc2nc3c(cc12)CCCCC3 93%
5) Nc1c(C(=O)Nc2ccccc2F)sc2nc3c(cc12)CCCCCC3 5%

Query :: Would you mind telling me what growth at 1 µM value was observed for CCOc1ccc2nc3sc(C(=O)Nc4ccc(Cl)cc4)c(N)c3cc2c1 ?
Result :: 100%

----------
Test system: MDA-MB-468
experiment-description: Antiproliferative activity against human MDA-MB-468 cells assessed as cell growth at 1 uM incubated for 3 days by 3H-thymidine incorporation assay relative to control
Type: functional
assay-setup: read-out: Activity
Measured growth at 1 µM accompanies every entry in the list below.
In your response, put the unit directly after the numeric value.

1) Cc1c(Br)cccc1NC(=O)c1sc2nc3c(cc2c1N)CCCC3 3%
2) Cc1c(Br)cccc1NC(=O)c1sc2nc3c(cc2c1N)CCCCC3 3%
3) Nc1c(C(=O)Nc2cccc([N+](=O)[O-])c2)sc2nc3c(cc12)CCC3 46%

Query :: Record lookup: for MDA-MB-468, what growth at 1 µM belongs to Nc1c(C(=O)Nc2cccc(C(F)(F)F)c2)sc2nc3c(cc12)CCCC3 ?
Result :: 41%

Query :: Record lookup: for MDA-MB-468, what growth at 1 µM belongs to CC(=O)c1ccc(NC(=O)c2sc3nc4ccccc4cc3c2N)cc1 ?
Result :: 70%

Query :: Record lookup: for MDA-MB-468, what growth at 1 µM belongs to O=c1c2sc3ncccc3c2ncn1-c1ccccc1 ?
Result :: 101%

Query :: Record lookup: for MDA-MB-468, what growth at 1 µM belongs to Cc1ccc2nc3sc(C(=O)Nc4ccccc4C)cc3cc2c1 ?
Result :: 89%

Query :: Record lookup: for MDA-MB-468, what growth at 1 µM belongs to Nc1c(C(=O)Nc2ccccc2Cl)sc2nc3c(c(C(F)(F)F)c12)CCCCCC3 ?
Result :: 100%

Query :: Record lookup: for MDA-MB-468, what growth at 1 µM belongs to Cc1cccc(NC(=O)c2cc3cc4cc(C)ccc4nc3s2)c1 ?
Result :: 84%

Query :: Record lookup: for MDA-MB-468, what growth at 1 µM belongs to Nc1c(C(=O)Nc2cccc([N+](=O)[O-])c2)sc2nc3c(cc12)CCCCC3 ?
Result :: 18%

Query :: Record lookup: for MDA-MB-468, what growth at 1 µM belongs to COc1ccc(OC)c(NC(=O)c2sc3nc4c(cc3c2N)CCCCC4)c1 ?
Result :: 94%

Query :: Record lookup: for MDA-MB-468, what growth at 1 µM belongs to COc1ccc(NC(=O)c2sc3nc4c(cc3c2N)CCCCCC4)cc1 ?
Result :: 84%

Query :: Record lookup: for MDA-MB-468, what growth at 1 µM belongs to CCOc1ccc2nc3sc(C(=O)Nc4ccc(C(C)=O)cc4)c(N)c3cc2c1 ?
Result :: 87%

Query :: Record lookup: for MDA-MB-468, what growth at 1 µM belongs to Cc1ccc2nc3sc(C(=O)Nc4cccnc4)cc3cc2c1 ?
Result :: 101%

Query :: Record lookup: for MDA-MB-468, what growth at 1 µM belongs to Nc1c(C(=O)Nc2cc(C(F)(F)F)ccc2Cl)sc2nc3c(cc12)CCCCC3 ?
Result :: 106%

Query :: Record lookup: for MDA-MB-468, what growth at 1 µM belongs to Nc1c(C(=O)Nc2ccc3ccccc3c2)sc2nc3c(cc12)CCC3 ?
Result :: 64%
